Study target: Human α2δ-1 subunit of Cav2.2 calcium channel (Homo sapiens)
Assay explanation: Human α2δ-1 subunit of Cav2.2 calcium channel assay ([3H]-Gabapentin radioligand binding)
Condition details: Human α2δ-1 enriched membranes, 15 nM [3H]-Gabapentin, 60 min at 27 °C
pKi: −log10 of the molar value.
Measured pKi, listed per entry for reference.

# example entries with known answers
O=C(O)[C@@H]1C[C@H](n2cc(Cc3cccc(Cl)c3)nn2)CN1
≤ 5.30
Cc1cccc(-c2cn([C@@H]3CN[C@H](C(=O)O)C3)nn2)c1
≤ 5.30
O=C(O)[C@@H]1C[C@H](n2cc(-c3cc(Cl)cc(Cl)c3)nn2)CN1
≤ 5.30
O=C(O)[C@@H]1C[C@H](n2cc(-c3ccc(F)c(F)c3)nn2)CN1
> 6.30

Q. // fetch pKi given entry CN(C)Cc1cc(F)cc(-c2cn([C@@H]3CN[C@H](C(=O)O)C3)nn2)c1
A. ≤ 5.30

* * *

Study target: Human α2δ-1 subunit of Cav2.2 calcium channel (Homo sapiens, UniProt P54289)
Sequence (P54289 25-1103): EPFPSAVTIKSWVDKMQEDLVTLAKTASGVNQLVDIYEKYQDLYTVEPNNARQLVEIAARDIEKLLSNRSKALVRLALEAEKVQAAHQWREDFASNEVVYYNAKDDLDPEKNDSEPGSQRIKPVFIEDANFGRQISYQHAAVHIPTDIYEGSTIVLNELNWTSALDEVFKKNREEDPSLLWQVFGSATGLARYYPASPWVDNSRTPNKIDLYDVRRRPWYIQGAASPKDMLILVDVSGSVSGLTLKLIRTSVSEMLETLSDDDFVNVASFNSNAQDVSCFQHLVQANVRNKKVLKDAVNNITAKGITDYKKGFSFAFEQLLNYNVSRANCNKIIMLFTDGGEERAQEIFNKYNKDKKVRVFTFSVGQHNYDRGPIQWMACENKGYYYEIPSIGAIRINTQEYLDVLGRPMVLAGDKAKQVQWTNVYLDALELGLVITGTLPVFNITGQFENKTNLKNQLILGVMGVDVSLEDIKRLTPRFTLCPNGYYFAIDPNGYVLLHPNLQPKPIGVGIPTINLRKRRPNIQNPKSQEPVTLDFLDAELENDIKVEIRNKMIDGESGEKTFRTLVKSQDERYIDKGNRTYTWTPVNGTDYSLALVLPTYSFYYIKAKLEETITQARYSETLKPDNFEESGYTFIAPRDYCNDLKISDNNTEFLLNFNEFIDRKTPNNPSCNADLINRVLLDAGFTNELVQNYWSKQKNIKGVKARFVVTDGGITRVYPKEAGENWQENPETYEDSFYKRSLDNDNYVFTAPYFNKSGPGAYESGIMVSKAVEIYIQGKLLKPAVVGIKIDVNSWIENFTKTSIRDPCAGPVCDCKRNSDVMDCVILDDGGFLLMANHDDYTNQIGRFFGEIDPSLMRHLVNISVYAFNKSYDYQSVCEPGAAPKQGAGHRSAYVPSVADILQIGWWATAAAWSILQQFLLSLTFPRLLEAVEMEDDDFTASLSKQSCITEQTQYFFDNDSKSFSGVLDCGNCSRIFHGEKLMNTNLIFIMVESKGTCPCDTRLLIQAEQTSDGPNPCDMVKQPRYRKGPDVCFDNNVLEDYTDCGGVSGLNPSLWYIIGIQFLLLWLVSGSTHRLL
Assay explanation: Human α2δ-1 subunit of Cav2.2 calcium channel assay ([3H]-Gabapentin radioligand binding)
Condition details: Human α2δ-1 enriched membranes, 15 nM [3H]-Gabapentin, 60 min at 27 °C
pKi: −log10 of the molar value.
Measured pKi, listed per entry for reference.

O=C(O)[C@@H]1C[C@H](n2cc(-c3ccc(Cl)c(Cl)c3)nn2)CN1
5.30 to 6.30

Q. // fetch pKi given entry O=C(O)[C@@H]1C[C@H](n2cc(Cc3ccccc3)nn2)CN1
A. ≤ 5.30

* * *

Study target: Human α2δ-1 subunit of Cav2.2 calcium channel (Homo sapiens, UniProt P54289)
Assay explanation: Human α2δ-1 subunit of Cav2.2 calcium channel assay ([3H]-Gabapentin radioligand binding)
Condition details: Human α2δ-1 enriched membranes, 15 nM [3H]-Gabapentin, 60 min at 27 °C
Measured Ki, listed per entry for reference.

# example entries with known answers
O=C(O)[C@@H]1C[C@H](n2cc(-c3ccccc3)nn2)CN1 [Example 7]
0.5 to 5 µM
O=C(O)[C@@H]1C[C@H](n2cc(-c3cccnc3)nn2)CN1 [Example 18]
≥ 5 µM
O=C(O)[C@@H]1C[C@H](n2cc(-c3cccc(Br)c3)nn2)CN1 [Example 24]
0.5 to 5 µM
CN(Cc1ccccc1)Cc1cc(F)cc(-c2cn([C@@H]3CN[C@H](C(=O)O)C3)nn2)c1 [Example 28]
≥ 5 µM

--- query ---
Q. // fetch Ki given entry O=C(O)[C@@H]1C[C@H](n2cc(-c3cccc(F)c3)nn2)CN1 [Example 1]
A. < 0.5 µM

* * *

Study target: Human α2δ-1 subunit of Cav2.2 calcium channel (Homo sapiens)
Assay explanation: Human α2δ-1 subunit of Cav2.2 calcium channel assay ([3H]-Gabapentin radioligand binding)
Condition details: Human α2δ-1 enriched membranes, 15 nM [3H]-Gabapentin, 60 min at 27 °C
Recorded endpoint: Ki

O=C(O)[C@@H]1C[C@H](n2cc(-c3cncc(Cl)c3)nn2)CN1
≥ 5 µM
O=C(O)[C@@H]1C[C@H](n2cc(-c3cccc(Cl)c3)nn2)CN1
< 0.5 µM
COc1ccccc1-c1cn([C@@H]2CN[C@H](C(=O)O)C2)nn1
≥ 5 µM

Q. // fetch Ki given entry CNCc1cc(F)cc(-c2cn([C@@H]3CN[C@H](C(=O)O)C3)nn2)c1
A. ≥ 5 µM

Q. // fetch Ki given entry O=C(O)[C@@H]1C[C@H](n2cc(Cc3ccc(Cl)cc3)nn2)CN1
A. ≥ 5 µM

Q. // fetch Ki given entry COc1cccc(-c2cn([C@@H]3CN[C@H](C(=O)O)C3)nn2)c1
A. ≥ 5 µM

Q. // fetch Ki given entry COc1ccc(-c2cn([C@@H]3CN[C@H](C(=O)O)C3)nn2)cc1
A. ≥ 5 µM

Q. // fetch Ki given entry O=C(O)[C@@H]1C[C@H](n2cc(-c3ccc(Cl)cc3Cl)nn2)CN1
A. ≥ 5 µM
